Taken from PubChem BioAssay (EPA / NIEHS).

biological target: Luciferin 4-monooxygenase (Photinus pyralis) (UniProt P08659); experiment: CCTE_Simmons_QuantiLum_inhib_2: CCTE's Firefly Luciferase Inhibition Assay, Simmons Lab (AID 2283767);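 as to AC50: potency for inhibitors that lower luciferase luminescence relative to DMSO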
Sequence (P08659 whole entry, looked up): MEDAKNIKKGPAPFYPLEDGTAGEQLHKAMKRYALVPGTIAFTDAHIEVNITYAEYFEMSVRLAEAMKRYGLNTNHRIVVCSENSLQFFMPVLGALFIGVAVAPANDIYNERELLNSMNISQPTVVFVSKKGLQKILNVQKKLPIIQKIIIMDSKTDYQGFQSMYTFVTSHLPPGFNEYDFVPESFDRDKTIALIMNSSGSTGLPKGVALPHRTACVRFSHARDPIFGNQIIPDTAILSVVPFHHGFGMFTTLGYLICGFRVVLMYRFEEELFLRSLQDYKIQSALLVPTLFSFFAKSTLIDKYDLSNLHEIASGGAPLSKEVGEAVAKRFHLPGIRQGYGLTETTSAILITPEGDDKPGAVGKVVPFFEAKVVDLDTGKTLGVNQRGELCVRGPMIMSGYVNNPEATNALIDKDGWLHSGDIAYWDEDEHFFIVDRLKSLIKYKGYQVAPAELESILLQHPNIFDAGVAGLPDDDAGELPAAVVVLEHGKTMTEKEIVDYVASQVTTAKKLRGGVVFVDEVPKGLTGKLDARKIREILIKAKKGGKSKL
Inconclusive results are not listed. Active and inactive are the calls of the source. The calls were made as follows: active = hit-call score of the fitted dose curve at least 0.9, where 1 is the maximum; inconclusive = response in the unintended direction; inactive = score below 0.9.
Endpoint: AC50

Solved entries (count: 6):
| Compound | AC50 |
| --- | --- |
| CC/C(=C\C(=N/O)C(N)=O)C(C)[N+](=O)[O-] (stereo not drawn) | inactive |
| CCNc1ccccc1 | inactive |
| CC(C)(O)c1coc(S(=O)(=O)NC(=O)Nc2c3c(cc4c2CCC4)CCC3)c1 | inactive |
| CN(C)c1ccc(Cc2ccc(N(C)C)cc2)cc1 | inactive |
| O=C(OC[C@H]1O[C@@H](OC(=O)c2cc(O)c(O)c(OC(=O)c3cc(O)c(O)c(O)c3)c2)[C@H](OC(=O)c2cc(O)c(O)c(OC(=O)c3cc(O)c(O)c(O)c3)c2)[C@@H](OC(=O)c2cc(O)c(O)c(OC(=O)c3cc(O)c(O)c(O)c3)c2)[C@@H]1OC(=O)c1cc(O)c(O)c(OC(=O)c2cc(O)c(O)c(O)c2)c1)c1cc(O)c(O)c(OC(=O)c2cc(O)c(O)c(O)c2)c1 | 21.6 µM (active) |
| O=C(CCCCCCCCc1cccnc1)N1CCC(C=C(c2ccccc2)c2ccccc2)CC1 | inactive |

Request: What value of AC50 has been recorded for this entry: "Nc1ccc(Nc2ccccc2)cc1"
Response: inactive

Request: What does the data say about its AC50? Entry: "NC(=O)NO"
Response: inactive

Request: // lookup AC50 for "C[C@](N)(Cc1ccc(O)c(O)c1)C(=O)O"
Response: 53.8 µM (active)

Request: State the recorded AC50 for this entry: "CCn1nc(Cc2ccccc2)cc1C1CCN(C[C@H]2C[C@H](N(C)[C@@H](C(=O)O)C(C)C)C[C@@H]2c2cccc(F)c2)CC1"
Response: inactive

Request: Please give the measured AC50 for this compound: "Nc1nc2ncc(CNc3ccc(C(=O)N[C@@H](CCC(=O)O)C(=O)O)cc3)nc2c(=O)[nH]1"
Response: inactive

Request: Please look up its AC50: CCOC(=O)c1ccc(C2CCC(NC[C@H](O)COc3ccc(O)c(NS(C)(=O)=O)c3)CC2)cc1 (stereo partly drawn)
Response: inactive

Request: Dear colleague, I am looking for the recorded AC50 of the following compound: "CCCN(C1CCN(C(=O)C2CCNCC2)CC1)[C@@H]1CCc2ccc(OC)cc2C1"
Response: inactive

----------
assay: Tanguay_ZF_120hpf_AXIS_legacy: (Legacy) Oregon State University Tanguay Lab 120 Hour Post-fertilization zebrafish Assay for Body Axis Malformation (AID 2283635)
Results filed as inconclusive are left out. Calls of active or inactive are those of the source. Rule for the calls: active = hit-call score of the fitted dose curve at least 0.9, where 1 is the maximum; inconclusive = response in the unintended direction; inactive = score below 0.9.
Bench note: report the call from active, inactive

| Compound | Category |
| --- | --- |
| CCCN(C1CCN(C(=O)C2CCNCC2)CC1)[C@@H]1CCc2ccc(OC)cc2C1 | inactive |

Request: Assay result, entry O=C1OC(=O)C2C3C=CC(C3)C12 (stereo not drawn) — outcome?
Response: inactive

Request: Please indicate how the test categorized "CC[C@H]1OC(=O)[C@H](C)[C@@H](O[C@H]2C[C@@](C)(OC)[C@@H](O)[C@H](C)O2)[C@H](C)[C@@H](O[C@@H]2O[C@H](C)C[C@H](N(C)C)[C@H]2O)[C@](C)(O)C[C@@H](C)C(=O)[C@H](C)[C@@H](O)[C@]1(C)O" .
Response: inactive

Request: Could you kindly confirm the outcome this assay logged for "Cn1c(=O)cc(Oc2ccc(F)cc2F)c2cnc(NCC(C)(C)O)nc21" ?
Response: inactive

Request: Hello, I am checking results. What call was entered for COc1ccc(-n2nc(C(F)F)cc2-c2ccc(S(C)=O)cc2)cc1 (stereo not drawn) ?
Response: active

Request: What was the test verdict on "CCOC(=O)CC(CC(=O)OCC)(OC(C)=O)C(=O)OCC" ?
Response: inactive

Request: Just curious, what result did "CC(=O)OCCC(C)C" get here?
Response: inactive

Request: Called result for "CCCCCCCCCCCCc1ccccc1"
Response: inactive

Request: # lookup: test call for "Nc1nc2ncc(CNc3ccc(C(=O)N[C@@H](CCC(=O)O)C(=O)O)cc3)nc2c(=O)[nH]1"
Response: inactive

Request: Which outcome did this test record for the compound "CCCC(=O)OCC" ?
Response: inactive

Request: For "CCN(C(=O)c1cc(C)cc(OC[C@H](C)Nc2ccncc2)c1)C(C)C" , what call appears in the results of this test?
Response: inactive

Request: Name the outcome recorded for "CCOc1cccc(-n2cc(C(=O)N3CCN(c4cc(C(=O)O)c5ccccc5c4)CC3)nc2-c2ccc(C)cc2)c1" in the assay.
Response: inactive

Request: For this compound, state the assay outcome: CC/C(=C\C(=N/O)C(N)=O)C(C)[N+](=O)[O-] (stereo not drawn)
Response: inactive

Request: What classification did "Oc1ccc2c(c1)-c1ccccc1C2" end up with in this test?
Response: active

Request: Recorded test outcome, item "O=C(OC[C@H]1O[C@@H](OC(=O)c2cc(O)c(O)c(OC(=O)c3cc(O)c(O)c(O)c3)c2)[C@H](OC(=O)c2cc(O)c(O)c(OC(=O)c3cc(O)c(O)c(O)c3)c2)[C@@H](OC(=O)c2cc(O)c(O)c(OC(=O)c3cc(O)c(O)c(O)c3)c2)[C@@H]1OC(=O)c1cc(O)c(O)c(OC(=O)c2cc(O)c(O)c(O)c2)c1)c1cc(O)c(O)c(OC(=O)c2cc(O)c(O)c(O)c2)c1"
Response: inactive

Request: Answer briefly: the call reported for "CC1(C)C(=O)N(Br)C(=O)N1Br" in this assay.
Response: inactive

Request: Recorded test outcome, item "Cn1c(=O)c2c(ncn2C)n(C)c1=O"
Response: inactive

Request: What did this assay record as the result for "O=C(NS(=O)(=O)/C=C/c1ccccc1)c1ccc(F)cc1Cl" ?
Response: inactive

Request: Hey, what did the test say about "C=CCCCCCCCCC(=O)O" ?
Response: inactive

Request: What call does the record list for "CCOCCO" ?
Response: inactive

Request: Field: outcome | Entry: "CC[C@H](C)C(=O)O[C@H]1C[C@@H](C)C=C2C=C[C@H](C)[C@H](CC[C@@H]3C[C@@H](O)CC(=O)O3)[C@H]21"
Response: inactive

Request: Tell me the assay call for "CN(C)c1ccc(N=NS(=O)(=O)O)cc1" please.
Response: inactive

Request: Status in this test for "CC(C)=CCC/C(C)=C/CO" ?
Response: active

Request: # outcome recorded in this test, key = "C[C@](N)(Cc1ccc(O)c(O)c1)C(=O)O"
Response: inactive

Request: // return assay outcome for "CC(C)CCCCCCOC(=O)c1ccc(C(=O)OCCCCCCC(C)C)c(C(=O)OCCCCCCC(C)C)c1"
Response: inactive

Request: Write down the call the test reported for this compound. Item: "CC[C@H]1CC[C@H](NCc2cc3c(cc2OC)[C@H]2C[C@H]2C(=O)N3C)[C@H](c2ccccc2)N1"
Response: inactive

Request: // outcome(item) with item = "O=P(OC(CCl)CCl)(OC(CCl)CCl)OC(CCl)CCl"
Response: active

Request: Each compound tested received a call. Report the one for O=c1[nH]c2ccc(S(=O)CCN3CCC(Cc4ccc(F)cc4)CC3)cc2o1 (stereo not drawn) .
Response: inactive

Request: # outcome recorded in this test, key = "COC(=O)CC(=O)OC"
Response: inactive

----------
assay: ATG_ISRE_CIS: Attagene CIS-FACTORIAL HepG2 Assay for human Interferon Regulatory Factor 1 (IRF1) binding to an Interferon-Stimulated Response Element (ISRE) (AID 2282948); settings: HepG2 ISRE cis-reporter (Attagene), mRNA transcription readout; actives raise or lower the signal
Calls of active or inactive are those of the source. The calls were made as follows: active = hit-call score of the fitted dose curve at least 0.9, where 1 is the maximum; inactive = score below 0.9.
Write down one outcome, taken from class 1 for active, class 0 for inactive

| Compound | Category |
| --- | --- |
| C[C@](N)(Cc1ccc(O)c(O)c1)C(=O)O | class 0 |
| Oc1ccc2c(c1)-c1ccccc1C2 | class 1 |
| CCOC(=O)COc1ccc2c(c1)CC(NCC(O)c1cccc(Cl)c1)CC2 (stereo not drawn) | class 0 |
| CCCN(C1CCN(C(=O)C2CCNCC2)CC1)[C@@H]1CCc2ccc(OC)cc2C1 | class 1 |

Request: Per the assay record, what outcome was assigned to "COC(=O)CC(=O)OC" ?
Response: class 0

Request: What classification did "COc1ccc(/C=C/S(=O)(=O)NC(=O)c2ccc(C)cc2Cl)cc1" end up with in this test?
Response: class 0

Request: Status in this test for "COCCOc1cc2cc(C(=O)NC3CCN(C(C)C)CC3)n(CC(=O)Nc3ccc(Cl)cn3)c2cn1" ?
Response: class 1

Request: Recorded test outcome, item "CC(=O)OC[C@H]1O[C@@](COC(C)=O)(O[C@H]2O[C@H](COC(C)=O)[C@@H](OC(C)=O)[C@H](OC(C)=O)[C@H]2OC(C)=O)[C@@H](OC(C)=O)[C@@H]1OC(C)=O"
Response: class 0

Request: Test call for this compound, please: "O=C(O)c1cccc(N(Cc2cccnc2)c2ccc(OC(F)F)c(OC(F)F)c2)c1"
Response: class 0
